Here, each record is paired with measured z-score data.
Measured target: NADPH oxidase 5 (Homo sapiens) (UniProt Q96PH1)
Sequence (Q96PH1 whole entry, looked up): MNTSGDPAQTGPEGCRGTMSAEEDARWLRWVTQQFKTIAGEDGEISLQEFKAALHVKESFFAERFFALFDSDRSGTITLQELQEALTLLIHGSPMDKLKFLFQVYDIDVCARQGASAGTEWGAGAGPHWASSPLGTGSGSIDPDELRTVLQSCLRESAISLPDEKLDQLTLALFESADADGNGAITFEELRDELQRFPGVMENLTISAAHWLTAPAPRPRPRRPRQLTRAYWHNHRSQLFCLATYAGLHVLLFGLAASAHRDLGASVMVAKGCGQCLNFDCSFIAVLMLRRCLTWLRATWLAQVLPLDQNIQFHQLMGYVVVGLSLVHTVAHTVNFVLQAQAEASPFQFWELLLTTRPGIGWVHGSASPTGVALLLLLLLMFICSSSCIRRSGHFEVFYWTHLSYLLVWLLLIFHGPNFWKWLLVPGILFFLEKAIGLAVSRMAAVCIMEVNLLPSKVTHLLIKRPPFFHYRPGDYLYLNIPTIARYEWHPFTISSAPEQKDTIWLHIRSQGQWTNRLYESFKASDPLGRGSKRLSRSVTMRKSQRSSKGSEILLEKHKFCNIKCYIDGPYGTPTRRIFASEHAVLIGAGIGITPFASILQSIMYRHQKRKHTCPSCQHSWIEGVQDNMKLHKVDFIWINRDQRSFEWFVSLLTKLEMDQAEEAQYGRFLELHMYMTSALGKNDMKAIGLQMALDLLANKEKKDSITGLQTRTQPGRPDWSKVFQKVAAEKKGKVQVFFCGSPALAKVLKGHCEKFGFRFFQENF
Assay overview: NOX5-dependent H2O2 signal modulators, primary screen, NOX inhibitor project, cell-based, HEK293-NOX5, Amplex Red fluorescence (AID 1161)
Test parameters: HEK293-NOX5, ionomycin, 45 min, higher = more signal
Measured property: z-score

>>> experimental_result("CN(C)C(=O)[C@@]1(Cc2ccccc2N=[N+]=[N-])COC(c2ccc(OCCCO)cc2)=N1")
-1.82
>>> experimental_result("COc1ccc([Si](C)(C)[C@H]2[C@H](CC(=O)N3Cc4ccccc4C[C@H]3CO)O[C@@]3(C(=O)N(Cc4cccc(N5CCCCC5=O)c4)c4ccccc43)[C@@H]2C)cc1")
-0.169
>>> experimental_result("Cc1ccc(C(C)CC(O)C2C=CC3C(=O)N(c4ccccc4)C(=O)C3N2Nc2ccc(C(C)C)cc2)o1 (stereo not drawn)")
-3.53
>>> experimental_result("O=C1O[C@@H](c2ccccc2)[C@@H](c2ccccc2)N2[C@@H](c3ccccc3OCCO)[C@]3(C(=O)Nc4ccc(C#CCCO)cc43)[C@@H](C(=O)N3CCN(c4ncccn4)CC3)[C@H]12")
0.272
>>> experimental_result("COCCOC(=O)N1C(=O)[C@@]2(c3cc(C#Cc4ccc(OC)cc4)ccc31)[C@H](C(=O)NC[C@H](O)c1ccccc1)[C@H]1C(=O)O[C@H](c3ccccc3)[C@H](c3ccccc3)N1[C@@H]2c1ccc(O)cc1")
0.00809
>>> experimental_result("O=C1O[C@@H](c2ccccc2)[C@@H](c2ccccc2)N2[C@@H](c3ccc(O)cc3)[C@]3(C(=O)Nc4ccc(C#CCCO)cc43)[C@@H](C(=O)Nc3nc4ccccc4s3)[C@H]12")
-0.073
>>> experimental_result("CN1C(=O)C2C(C1=O)C1C=C(c3ccc(CO)cc3)C2C(c2cccs2)N1Cc1cccc(OC(F)(F)F)c1 (stereo not drawn)")
-2.6
>>> experimental_result("CCCC[C@@H]1C[C@H]1[C@@H](NC(=O)c1cccnc1)c1ccc(-c2ccccc2)cc1")
0.353

###

Form field: z-score (one value per entry).
Assay overview: MM1S cell viability effects, profiling panel, calcein-AM fluorescence, 48 h, basal (AID 1165);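 note: viability of MM1S multiple myeloma cells under basal unstimulated conditions; test concentration not given here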
Test parameters: higher = more signal
Measured property: z-score

>>> experimental_result("CC(C)CNC(=O)[C@@]1(c2ccc([N+](=O)[O-])cc2)CC(=O)N(C2CCCCC2)[C@@H]1c1ccc(CO)cc1I")
-2
>>> experimental_result("CC(C)CCC[C@@H](C)[C@H]1CC[C@@]2(C)C3=C(CC[C@]12C)[C@@]1(C)CC[C@H](OC(=O)c2ccc(Br)cc2)C(C)(C)C1CC3 (some centres not stated)")
0.109
>>> experimental_result("C=C(/C(=C/C[C@@H](OC(=O)c1ccncc1)c1ccccc1OCCO)c1cc(C(=O)OC)ccc1OC)C(C)C")
-3.25
>>> experimental_result("CC(C)(C)OC(=O)CC[C@]1(C(=O)NCCN2CCOCC2)N=C(c2ccc(OCCCO)cc2)O[C@H]1c1ccccc1N=[N+]=[N-]")
-0.603
>>> experimental_result("CC(C)C[C@@H]1NC(=O)[C@H]2C[C@@H](C(=O)NCCCCCC[N+](C)(C)C)[C@@H](c3cccc(OCCO)c3)N2C1=O")
-0.804
>>> experimental_result("C=C(CCCC)C(=O)CC[C@@H](OC(=O)c1ccccc1-c1ccccc1C(=O)O)c1cccc(OCCO)c1")
-3.41
>>> experimental_result("CO[C@H]1O[C@H](CO)[C@@H](OC(=O)Nc2ccc(C(F)(F)F)cc2)[C@H](OC(=O)Nc2ccc3c(c2)OCO3)[C@H]1OC(=O)Nc1ccc2c(c1)OCO2")
-2.85
